A collection of compounds and their measured Ki
- target: SERT (Homo sapiens, UniProt P31645)
- assay-method-text: hSERT membrane radioligand binding assay (3H-citalopram)
- Parameters: expressed in transfected cells; host or cells: HEK-293
- protocol-conditions: hSERT membranes (HEK-293), 1.0 nM 3H-citalopram; read-out: SERT pKi (converted)
- Sequence (P31645 whole entry): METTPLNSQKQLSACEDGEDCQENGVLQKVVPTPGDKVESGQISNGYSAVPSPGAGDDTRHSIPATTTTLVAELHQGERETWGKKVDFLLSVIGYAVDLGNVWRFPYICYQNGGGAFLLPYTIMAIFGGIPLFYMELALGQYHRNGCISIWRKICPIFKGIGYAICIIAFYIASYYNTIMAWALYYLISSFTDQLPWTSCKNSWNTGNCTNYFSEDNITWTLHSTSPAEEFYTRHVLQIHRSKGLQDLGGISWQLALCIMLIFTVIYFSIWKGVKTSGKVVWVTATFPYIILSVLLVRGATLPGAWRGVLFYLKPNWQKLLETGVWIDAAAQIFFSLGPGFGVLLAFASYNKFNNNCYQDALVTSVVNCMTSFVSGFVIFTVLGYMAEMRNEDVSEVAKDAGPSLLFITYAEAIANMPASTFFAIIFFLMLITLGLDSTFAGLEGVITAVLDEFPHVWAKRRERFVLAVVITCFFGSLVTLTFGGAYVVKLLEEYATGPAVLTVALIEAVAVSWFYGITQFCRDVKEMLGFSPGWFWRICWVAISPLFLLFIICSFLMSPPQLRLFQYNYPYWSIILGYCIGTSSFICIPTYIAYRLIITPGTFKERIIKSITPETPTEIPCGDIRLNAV

Which Ki value is on record for CC(C)OC[C@H](Oc1cccc(Cl)c1C(F)(F)F)[C@@H]1CCNC1 ?
≤ 10 nM

Okay, and CC(C)OC[C@H](Oc1cccc(F)c1Cl)[C@@H]1CCNC1 ?
≤ 100 nM

Okay, and Clc1cc(Cl)cc(O[C@@H](C2CCOCC2)[C@@H]2CCNC2)c1 ?
≤ 10 nM

Okay, and Clc1cccc(Cl)c1O[C@@H](C1CCOCC1)[C@H]1CCNC1 ?
≤ 10 nM

Okay, and Clc1cc(Cl)cc(O[C@@H](C2CCOCC2)[C@H]2CCNC2)c1 ?
≤ 10 nM

More entries:
Which Ki value is on record for Clc1cccc(Cl)c1O[C@H](C1CCOCC1)[C@@H]1CCNC1 ?
≤ 100 nM

Okay, and COC[C@@H](Oc1cccc(Cl)c1C)[C@H]1CCNC1 ?
≤ 10 nM

Okay, and Clc1cccc(O[C@H](C2CCOCC2)[C@H]2CCNC2)c1Cl ?
≤ 10 nM

* * *

A collection of molecules and their measured Ki
- target: NET (Homo sapiens)
- assay-method-text: hNET membrane radioligand binding assay (3H-nisoxetine)
- Parameters: expressed in transfected cells; host or cells: HEK-293
- protocol-conditions: hNET membranes (HEK-293), 1.0 nM 3H-nisoxetine; read-out: NET pKi (converted)

GET /values?readout=Ki&system=NET (Homo sapiens)&item= COC[C@H](Oc1cccc(Cl)c1C)[C@@H]1CCNC1
≤ 100 nM

More entries:
GET /values?readout=Ki&system=NET (Homo sapiens)&item= Fc1cccc(O[C@@H](C2CCOCC2)[C@@H]2CCNC2)c1Cl
≤ 10 nM

Okay, and COC[C@H](Oc1cccc(Cl)c1C)[C@H]1CCNC1 ?
≤ 10 nM

Okay, and COC[C@H](Oc1cccc(Cl)c1Cl)[C@@H]1CCNC1 ?
≤ 100 nM

Okay, and CC(C)OC[C@H](Oc1cccc(Cl)c1C(F)(F)F)[C@@H]1CCNC1 ?
≤ 100 nM

Okay, and Cc1c(Cl)cccc1O[C@@H](COC(C)C)[C@@H]1CCNC1 ?
≤ 100 nM

Okay, and FC(F)(F)c1ccc(O[C@@H](C2CCOCC2)[C@H]2CCNC2)cc1 ?
≤ 100 nM

Okay, and CC(C)OC[C@H](Oc1cccc(Cl)c1Cl)[C@@H]1CCNC1 ?
≤ 100 nM

Okay, and COC[C@@H](Oc1c(Cl)cccc1Cl)[C@H]1CCNC1 ?
≤ 100 nM

Okay, and COC[C@@H](Oc1cccc(F)c1Cl)[C@H]1CCNC1 ?
≤ 10 nM

Okay, and Clc1cccc(O[C@@H](C2CCOCC2)[C@@H]2CCNC2)c1Cl ?
≤ 10 nM

Okay, and Fc1cccc(O[C@@H](C2CCOCC2)[C@H]2CCNC2)c1Cl ?
≤ 10 nM

* * *

- target: SERT (Homo sapiens, UniProt P31645)
- assay-method-text: fluorescence-based serotonin uptake assay (Tsuruda et al. 2010)
- Type: cell-based
- protocol-conditions: serotonin reuptake inhibition, fluorescence-based assay (data indicated by an asterisk); read-out: SERT pIC50 (converted)
- Sequence (P31645 whole entry, species assumed): as the sequence (P31645 whole entry) above
measure: IC50

Recorded IC50, per entry:
GET /values?readout=IC50&system=SERT (Homo sapiens, UniProt P31645)&item= CC(C)OC[C@@H](Oc1cccc(Cl)c1Cl)[C@H]1CCNC1
≤ 10 nM

Okay, and CC(C)OC[C@H](Oc1cccc(F)c1Cl)[C@@H]1CCNC1 ?
≤ 100 nM

Okay, and CC(C)OC[C@@H](Oc1cccc(Cl)c1C(F)(F)F)[C@H]1CCNC1 ?
≤ 10 nM

Okay, and CCOC[C@H](Oc1cccc(F)c1F)[C@H]1CCNC1 ?
≤ 100 nM

Okay, and CCOC[C@H](Oc1ccc(F)cc1)[C@H]1CCNC1 ?
≤ 100 nM

Okay, and CC(C)OC[C@H](Oc1ccc(Cl)cc1Cl)[C@@H]1CCNC1 ?
≤ 10 nM

Okay, and CC(C)SC[C@H](Oc1cccc(Cl)c1C(F)(F)F)[C@H]1CCNC1 ?
≤ 10 nM

Okay, and CC(C)OC[C@H](Oc1ccc(Cl)cc1Cl)[C@H]1CCNC1 ?
≤ 10 nM

More entries:
GET /values?readout=IC50&system=SERT (Homo sapiens, UniProt P31645)&item= CCOC[C@H](Oc1ccc(Cl)c(Cl)c1F)[C@H]1CCNC1
≤ 10 nM

Okay, and CC(C)OC[C@H](Oc1cccc(C(F)(F)F)c1)[C@@H]1CCNC1 ?
≤ 100 nM

Okay, and CCOC[C@H](Oc1ccc(Cl)cc1C)[C@H]1CCNC1 ?
≤ 10 nM

Okay, and CCOC[C@H](Oc1cccc(C(F)(F)F)c1F)[C@H]1CCNC1 ?
≤ 100 nM

Okay, and CC(C)SC[C@@H](Oc1ccc(Cl)cc1Cl)[C@H]1CCNC1 ?
≤ 10 nM

Okay, and CCOC[C@H](Oc1ccc(Cl)cc1C(F)(F)F)[C@H]1CCNC1 ?
≤ 10 nM

Okay, and Clc1ccc(OC(COCc2ccccc2)C2CCNC2)c(Cl)c1 (stereo not shown) ?
≤ 10 nM

Okay, and Clc1cccc(Cl)c1OC(COCc1ccccc1)C1CCNC1 (stereo not shown) ?
≤ 100 nM

Okay, and CCOC[C@H](Oc1c(F)ccc(F)c1Cl)[C@H]1CCNC1 ?
≤ 100 nM

Okay, and Clc1cccc(OC(COCc2ccccc2)C2CCNC2)c1Cl (stereo not shown) ?
≤ 10 nM

Okay, and CC(C)SC[C@H](Oc1ccc(Cl)c(Cl)c1)[C@H]1CCNC1 ?
≤ 10 nM

Okay, and CCOC[C@@H](Oc1cccc(Cl)c1C(F)(F)F)[C@H]1CCNC1 ?
≤ 10 nM

Okay, and CC(C)OC[C@H](Oc1cccc(C(F)(F)F)c1)[C@H]1CCNC1 ?
≤ 100 nM

Okay, and CCOC[C@H](Oc1cccc(Cl)c1C)[C@H]1CCNC1 ?
≤ 10 nM

Okay, and CC(C)OC[C@H](Oc1cccc(Cl)c1C(F)(F)F)[C@@H]1CCNC1 ?
≤ 100 nM

Okay, and CCOC[C@H](Oc1cc(F)cc(Cl)c1)[C@H]1CCNC1 ?
≤ 100 nM

Okay, and CCOC[C@H](Oc1c(Cl)ccc(Cl)c1F)[C@H]1CCNC1 ?
≤ 100 nM

* * *

- target: NET (Homo sapiens, UniProt P23975)
- Sequence (P23975 whole entry): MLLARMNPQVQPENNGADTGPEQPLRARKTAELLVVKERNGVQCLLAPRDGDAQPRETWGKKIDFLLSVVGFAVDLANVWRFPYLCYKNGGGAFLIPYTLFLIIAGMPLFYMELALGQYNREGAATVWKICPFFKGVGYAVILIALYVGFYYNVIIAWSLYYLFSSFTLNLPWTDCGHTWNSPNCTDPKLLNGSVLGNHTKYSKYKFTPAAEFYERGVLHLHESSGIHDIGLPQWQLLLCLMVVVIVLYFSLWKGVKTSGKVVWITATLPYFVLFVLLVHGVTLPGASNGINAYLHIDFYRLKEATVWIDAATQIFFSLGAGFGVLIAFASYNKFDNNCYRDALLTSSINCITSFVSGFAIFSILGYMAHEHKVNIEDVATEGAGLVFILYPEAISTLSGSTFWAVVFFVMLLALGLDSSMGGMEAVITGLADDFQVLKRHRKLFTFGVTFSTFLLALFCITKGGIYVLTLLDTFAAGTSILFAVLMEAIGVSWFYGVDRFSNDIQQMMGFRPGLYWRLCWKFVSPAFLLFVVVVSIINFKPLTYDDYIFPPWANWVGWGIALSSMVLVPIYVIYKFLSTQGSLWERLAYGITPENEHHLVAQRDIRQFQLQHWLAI
- assay-method-text: fluorescence-based norepinephrine uptake assay (Tsuruda et al. 2010)
- Assay type: cell-based
- protocol-conditions: norepinephrine reuptake inhibition, fluorescence-based assay (data indicated by an asterisk); read-out: NET pIC50 (converted)
measure: IC50

Recorded IC50, per entry:
Which IC50 value is on record for Clc1cccc(OC(COCc2ccccc2)C2CCNC2)c1Cl (stereo not drawn) [Example 10-2] ?
≤ 10 nM

Okay, and CC(C)SC[C@H](Oc1cccc(F)c1Cl)[C@H]1CCNC1 [Example 19-3] ?
≤ 10 nM

Okay, and CCOC[C@H](Oc1c(Cl)cc(F)cc1Cl)[C@H]1CCNC1 [Example 7-31] ?
≤ 10 nM

More entries:
Which IC50 value is on record for CCOC[C@@H](Oc1ccc(Cl)cc1Cl)[C@H]1CCNC1 [Example 7-17] ?
≤ 100 nM

Okay, and CCOC[C@H](Oc1ccc(Cl)cc1)[C@H]1CCNC1 [Example 7-4] ?
≤ 10 nM

Okay, and CCOC[C@H](Oc1ccccc1Cl)[C@H]1CCNC1 [Example 7-1] ?
≤ 10 nM

Okay, and Cc1c(Cl)cccc1OC(COCc1ccccc1)C1CCNC1 (stereo not drawn) [Example 10-5] ?
≤ 10 nM

Okay, and CCOC[C@@H](Oc1ccc(C#N)cc1Cl)[C@@H]1CCNC1 (stereo in doubt) [Example 7-20] ?
≤ 100 nM

Okay, and CCOC[C@H](Oc1cccc(C(F)(F)F)c1)[C@H]1CCNC1 [Example 7-2] ?
≤ 100 nM

* * *

- target: NET (Homo sapiens, UniProt P23975)
- assay-method-text: fluorescence-based norepinephrine uptake assay (Tsuruda et al. 2010)
- Type: cell-based
- protocol-conditions: norepinephrine reuptake inhibition, fluorescence-based assay (data indicated by an asterisk)
Marks after values point to notes of the source that are not given here.
measure: NET pIC50

GET /values?readout=NET pIC50&system=NET (Homo sapiens, UniProt P23975)&item= CSC[C@@H](Oc1ccc(Cl)cc1Cl)[C@H]1CCNC1.O=C(O)C(F)(F)F
≧7.0*

Okay, and CCSC[C@H](Oc1ccc(Cl)cc1C(F)(F)F)[C@H]1CCNC1.O=C(O)C(F)(F)F ?
≧8.0*

Okay, and CSC[C@@H](Oc1c(C)cc(Cl)cc1Cl)[C@H]1CCNC1.O=C(O)C(F)(F)F ?
≧7.0*

These data points were gathered from patent US8455665B2.
